target: human LH receptor (Homo sapiens, UniProt P22888); construct: cotransfected with CRE-luciferase reporter; test: CHO-LH in vitro bioactivity (CRE-luciferase reporter); details: CHO cells stably transfected with human LH receptor
Sequence (P22888 27-699): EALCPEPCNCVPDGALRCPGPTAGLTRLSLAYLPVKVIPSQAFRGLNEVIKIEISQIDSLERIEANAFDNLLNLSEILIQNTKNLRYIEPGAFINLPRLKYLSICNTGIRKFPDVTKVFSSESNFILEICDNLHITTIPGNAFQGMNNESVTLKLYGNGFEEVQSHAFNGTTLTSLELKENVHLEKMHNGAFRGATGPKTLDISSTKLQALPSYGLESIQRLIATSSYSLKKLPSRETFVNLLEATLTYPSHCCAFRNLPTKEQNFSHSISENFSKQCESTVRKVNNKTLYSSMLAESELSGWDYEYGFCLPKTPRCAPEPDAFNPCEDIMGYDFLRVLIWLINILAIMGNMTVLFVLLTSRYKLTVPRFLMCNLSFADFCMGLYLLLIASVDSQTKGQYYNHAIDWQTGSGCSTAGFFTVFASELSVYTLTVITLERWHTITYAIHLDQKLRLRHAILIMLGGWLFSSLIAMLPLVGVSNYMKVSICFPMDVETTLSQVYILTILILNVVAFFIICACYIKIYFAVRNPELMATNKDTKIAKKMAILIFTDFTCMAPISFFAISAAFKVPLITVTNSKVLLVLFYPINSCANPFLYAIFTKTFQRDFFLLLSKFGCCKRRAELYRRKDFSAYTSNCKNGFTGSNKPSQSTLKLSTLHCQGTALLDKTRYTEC

{"structure": "COCCN(CCOC)CC(=O)Nc1cccc(-c2nc(SC)nc3sc(C(=O)NC(C)(C)C)c(N)c23)c1", "EC50 [µM]": 0.01}
{"structure": "CSc1nc(-c2cccc(NC(=O)CNC(CO)CO)c2)c2c(N)c(C(=O)NC(C)(C)C)sc2n1", "EC50 [µM]": 0.0264}
{"structure": "CC(C)(C)NC(=O)c1sc2nc(-c3ccco3)nc(-c3cccc(NC(=O)CNC(C)(C)CO)c3)c2c1N", "EC50 [µM]": 0.0118}
{"structure": "CSc1nc(-c2cccc(NC(=O)CNC(C)(C)CO)c2)c2c(N)c(C(=O)NC(C)(C)C)sc2n1", "EC50 [µM]": 0.00542}
